src = ChEMBL document CHEMBL1154749

The following compounds each carry a recorded IC50 for Beta-secretase 1 (Homo sapiens).

smiles_repr=COC[C@@H](C[C@H](O)[C@H](COc1cc(F)cc(F)c1)NC(=O)c1cc(C(=O)N[C@H](C)c2ccccc2)cc(N(C)S(C)(=O)=O)c1)OC endpoint_value="> 10 µM"
smiles_repr=CO[C@@H](CNCc1ccccc1)C[C@H](O)[C@H](COc1cc(F)cc(F)c1)NC(=O)c1cc(C(=O)N[C@H](C)c2ccccc2)cc(N(C)S(C)(=O)=O)c1 endpoint_value="> 10 µM"

--- query ---
Problem: For COc1cccc(COC[C@@H](C[C@H](O)[C@H](COc2cc(F)cc(F)c2)NC(=O)c2cc(C(=O)N[C@H](C)c3ccccc3)cc(N(C)S(C)(=O)=O)c2)OC)c1 , what is its reported IC50?
Result: > 10 µM
